Recorded pIC50 values for a group of binders are listed next.
- assayTarget: T1, midkine (AP-MK) (Homo sapiens, UniProt P21741 P21741:23-143)
- T1 chain: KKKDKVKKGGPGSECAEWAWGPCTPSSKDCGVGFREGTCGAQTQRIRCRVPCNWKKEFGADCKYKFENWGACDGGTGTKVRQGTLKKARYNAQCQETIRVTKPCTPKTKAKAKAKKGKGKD
- protocolNotes: inhibition; AP-MK binding to HepG2 cells
- conditionContext: tags: alkaline phosphatase fusion, APtag-5 vector (GenHunter), 293T culture supernatant
pIC50: −log10 of the molar value.
observedProperty: pIC50

binder	cmp	observed
GCCAUCGCAAUGGUGAGUGGUUUAUCCGCCUGCGCAUGGC (ssRNA, 5' 40PEG2ts; 3' idT; 2'-OMe at C2,C3,C40 and all purines except G15,A16,G17,A24 (2'-OH); 2'-F at all other pyrimidines) [SEQ ID NO: 7-4]	=	8.44
GCCAUCGCAAUGGUGAGUGGUUUAUCCGCCUGCGCAUGGC (ssRNA, 2'-OMe at 1-3 and 38-40; 2'-F at all other pyrimidines; other purines 2'-OH) [SEQ ID NO: 7-1]	=	8.22
SEQ ID NO: 9-1 (mixed, 2'-OMe at C2,C3,C40 and RNA purines except G15,A16,G17,A24 (2'-OH); 2'-F at all other pyrimidines; 3' 16-nt poly dA (DNA)) RNA: GCCAUCGCAAUGGUGAGUGGUUUAUCCGCCUGCGCAUGGCAAAAAAAAAAAAAAAA	=	8.80
SEQ ID NO: 9-4 (mixed, 2'-OMe at C2,C3,C40 and RNA purines except G15,A16,A24 (2'-OH); 2'-F at all other pyrimidines; 3' 16-nt poly dA (DNA)) RNA: GCCAUCGCAAUGGUGAGUGGUUUAUCCGCCUGCGCAUGGCAAAAAAAAAAAAAAAA	=	8.39
SEQ ID NO: 9-5 (mixed, 2'-OMe at C2,C3,C40 and RNA purines except G15,A16,G17 (2'-OH); 2'-F at all other pyrimidines; 3' 16-nt poly dA (DNA)) RNA: GCCAUCGCAAUGGUGAGUGGUUUAUCCGCCUGCGCAUGGCAAAAAAAAAAAAAAAA	=	7.72
GCCAUCGCAAUGGUGAGUGGUUUAUCCGCCUGCGCAUGGC (ssRNA, 5' 40PEG2ts; 3' idT; 2'-OMe at 1-3 and 38-40; 2'-F at all other pyrimidines) [SEQ ID NO: 7-2]	=	8.31
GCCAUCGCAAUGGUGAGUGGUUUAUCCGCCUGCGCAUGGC (ssRNA, 3' idT; 2'-OMe at 1-14,16,19,20,23,28,30-40; 2'-F at U18,U21,U22,U25,C26,C27,C29; 2'-OH at G15,G17,A24) [SEQ ID NO: 7-6]	>	8.70
GCUCGCAAUGGUGAGUGGUUUAUCCGCCUGCGCAGC (ssRNA, 3' idT; 2'-OMe at 1-11,17,18,21,26,28-36; 2'-F at U12,U16,U19,U20,U23,C24,C25,C27; 2'-OH at G13,A14,G15,A22) [SEQ ID NO: 10]	>	8.70
SEQ ID NO: 9-2 (mixed, 2'-OMe at C2,C3,C40 and RNA purines except A16,G17,A24 (2'-OH); 2'-F at all other pyrimidines; 3' 16-nt poly dA (DNA)) RNA: GCCAUCGCAAUGGUGAGUGGUUUAUCCGCCUGCGCAUGGCAAAAAAAAAAAAAAAA	=	7.89
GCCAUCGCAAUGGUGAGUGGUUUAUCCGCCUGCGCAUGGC (ssRNA, 3' idT; 2'-OMe at 1-13,16,19,20,23,28-40; 2'-F at U14,U18,U21,U22,U25,C26,C27; 2'-OH at G15,G17,A24) [SEQ ID NO: 7-8]	>	8.70
